# Test system: 922993-354-T-J3-PDC complex spheroids, viability;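 further: spheroids exposed to compounds for seven days; 100% = DMSO vehicle control viability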
# METHOD DESCRIPTION: Anticancer human tumor 922993-354-T-J3-PDC patient-derived endometrial carcinoma cell line growth inhibition [GQUAD]
# EXPERIMENTAL PARAMETERS: second compound 1 µM; first compound 10 µM; active compounds read low
Consider the following compounds; for each one, report its viability, T/C.

CC1COCCN1c1cc(-c2ccnn2C)c2ccnc(-c3ccn[nH]3)c2n1 (stereo unspecified) + Cc1[nH]c2ccc(F)cc2c1-c1nc2c3cccnc3c3ncccc3c2[nH]1; 15.1%

// batch mode: one viability, T/C value per listed entry
1. CC1COCCN1c1cc(C2(O)CC3CCC(C2)O3)c2cnn(-c3ccn[nH]3)c2n1 (stereo unspecified) + Cc1[nH]c2ccc(F)cc2c1-c1nc2c3cccnc3c3ncccc3c2[nH]1
2. COc1cccc2c1C(=O)c1c(O)c3c(c(O)c1C2=O)CC(O)(C(=O)CO)CC3OC1CC(N)C(O)C(C)O1 (stereo unspecified) + CN(C)c1ccc(Nc2c3ccc(NC(=O)CCN4CCCC4)cc3nc3cc(NC(=O)CCN4CCCC4)ccc23)cc1
3. COc1ncnc(C2CC2)c1-c1ncc2cnn(Cc3ccc(-c4nc(C(F)(F)F)cn4C(C)C)cc3)c2n1 + Cc1cnc(CNC(=O)c2c(=O)c3ccc(N4CCCN(C)CC4)nc3n3c2sc2ccccc23)cn1
4. Nc1ccn(C2OC(CO)C(O)C2(F)F)c(=O)n1 (stereo unspecified) + Cc1[nH]c2ccc(F)cc2c1-c1nc2c3cccnc3c3ncccc3c2[nH]1
5. O=C(NO)c1cnc(N2CCN(S(=O)(=O)c3ccc4ccccc4c3)CC2)nc1 + Cc1cnc(CNC(=O)c2c(=O)c3ccc(N4CCCN(C)CC4)nc3n3c2sc2ccccc23)cn1
6. Nc1ccn(C2OC(CO)C(O)C2(F)F)c(=O)n1 (stereo unspecified) + CN(C)c1ccc(Nc2c3ccc(NC(=O)CCN4CCCC4)cc3nc3cc(NC(=O)CCN4CCCC4)ccc23)cc1
7. CC(C)(O)C1CCC(Nc2ccc3ncc(-c4cccc(C(F)(F)F)c4)n3n2)CC1 (stereo unspecified) + Cc1cnc(CNC(=O)c2c(=O)c3ccc(N4CCCN(C)CC4)nc3n3c2sc2ccccc23)cn1

1. 17.7%
2. 20.8%
3. 67.1%
4. 21.7%
5. 0.22%
6. 11.8%
7. 54.8%
